System: OVCAR-8
Assay: NCI tumour cell line growth inhibition, 48 h
Active and inactive are the calls of the source. No stated cut-off is given here; in the data, active = GI50 up to about 1.1 µM and inactive = higher.
Recorded GI50 values for a group of compounds are listed next.

| mol | GI50 |
| --- | --- |
| Cc1n(CC(=O)c2ccc([N+](=O)[O-])cc2)c2c([n+]1CC(C)C)C(=O)c1ccccc1C2=O | < 0.01 µM (active) |
| C(=N\Nc1ccccc1)/c1nc2ccccc2nc1/C=N/Nc1ccccc1 | 6.75 µM (inactive) |
| Clc1nc(Cl)c(-c2ccccc2)c(Cl)n1 | 2.75 µM (inactive) |
| CCOC(=O)C(=C=Cc1cccs1)C(=O)c1ccccc1 | 15.8 µM (inactive) |
| C=C(CC[C@@H](C)[C@H]1CC[C@H]2[C@@H]3C[C@@H](O)[C@H]4C[C@@H](O)CC[C@]4(CO)[C@H]3CC[C@]12C)C(C)C | 5.47 µM (inactive) |

---

System: SNB-19
Test: NCI tumour cell line growth inhibition, 48 h
Activity calls are given as the source filed them. Cut-off read from the data, not from the text of the source: active = GI50 up to about 1.1 µM and inactive = higher.
Recorded GI50 values for a group of compounds are listed next.
reportedProperty: GI50

| compound | reportedProperty | recordedValue |
| --- | --- | --- |
| O=C1Nc2ccccc2/C1=N/Nc1nc(-c2ccc([N+](=O)[O-])cc2)cs1 | GI50 | 44.1 µM (inactive) |
| C=C[C@@]1(C)CC2(C=C(CO)C(O)O2)Oc2c1c(=O)oc1cccc(C)c21 (some centres undefined) | GI50 | 16.7 µM (inactive) |
| CN(C)c1ncc(-c2c[nH]c3ccccc23)nc1-c1c[nH]c2ccccc12 | GI50 | 4.12 µM (inactive) |
| O=S(=O)(c1ccc(I)cc1)N(c1ccccc1)S(=O)(=O)C(F)(F)C(F)(F)C(F)(F)C(F)(F)F | GI50 | 74.3 µM (inactive) |
| CC(Nc1ncc2c(n1)-c1ccccc1OC2)C(=O)O (centres undefined) | GI50 | > 100 µM (inactive) |
| O=c1c(-c2ccccc2)c2oc(c1-c1ccccc1)CSCc1cccc(c1)CSC2 | GI50 | 33 µM (inactive) |
| COc1c(O)c(C=O)c2c(O)c(-c3c(C)cc4c(C(C)C)c(OC)c(O)c(C=O)c4c3O)c(C)cc2c1C(C)C | GI50 | 3.88 µM (inactive) |
| c1ccc([P+](Cc2csnn2)(c2ccccc2)c2ccccc2)cc1 | GI50 | > 100 µM (inactive) |
| COc1cc(/C=C2\C(=O)N(c3ccccc3)C(c3ccccc3)S2(=O)=O)cc(OC)c1OC (centres undefined) | GI50 | 31 µM (inactive) |

---

System: UACC-257
Assay: NCI tumour cell line growth inhibition, 48 h
Calls of active or inactive are those of the source. Cut-off read from the data, not from the text of the source: active = GI50 up to about 1.1 µM and inactive = higher. Numbered stars: 1 amine (or outer) side, 2 acyl side, 3 side chain; on linkers, the order of the positions; unused ones are H or OH. Square brackets hold non-standard residues; d marks the D form. Peptide text beside a SMILES is read from it. * marks the point of attachment. X30 = CC(=O)N(C)SCC(N[*:1])C(=O)[*:2]; Cbz = O=C(OCc1ccccc1)*; Bn = c1ccc(C*)cc1

| compound | GI50 |
| --- | --- |
| COc1ccc(C[C@@H]2Cc3cc(OC)c(OC)cc3CN2C)cc1 | > 100 µM (inactive) |
| CSc1ccc(/C=C2\N=C(c3ccccc3)N(c3nc4ccc(Sc5ccccc5)cc4[nH]3)C2=O)cc1 | 13.9 µM (inactive) |
| N#Cc1ccccc1NC(=O)C(=O)C(C(=O)c1ccncc1)C1OC(=O)c2ccccc21 (stereo not drawn) | > 100 µM (inactive) |
| CC(=O)N1CN2C(=O)CCC2c2ccccc21 (stereo not drawn) | > 100 µM (inactive) |
| COc1cc(C2S/C(=C/c3ccccc3)C(=O)N2c2cccc(Cl)c2)cc(OC)c1OC (stereo not drawn) | 23.6 µM (inactive) |
| C[C@H]1ON2CCC[C@@H]2[C@@H]1C(=O)N1C2CC3CCC2(CS1(=O)=O)C3(C)C (stereo partly drawn) | > 100 µM (inactive) |
| O=C(O)Cc1ccc(N2N=C(c3ccccc3)CC2=O)cc1 | > 100 µM (inactive) |
| CC(=O)N1C(Nc2nccs2)CCN1c1ccccc1 (stereo not drawn) | > 10 µM (inactive) |
| CC(=O)N(C)SCC(NC(=O)C(Cc1ccccc1)NC(=O)OCc1ccccc1)C(=O)NC(Cc1ccccc1)C(=O)NC(Cc1c[nH]c2ccccc12)C(=O)NC(CCCCNC(=O)OCc1ccccc1)C(=O)NC(C(=O)NC(CSN(C)C(C)=O)C(=O)NC(C(N)=O)C(C)OCc1ccccc1)C(C)OCc1ccccc1 (stereo not drawn) (Cbz-F[X30]FWK(Cbz)T(Bn)[X30]T(Bn)-NH2; configuration not given here) | > 100 µM (inactive) |
| O=c1[nH]nc(Cc2ccc(Cl)cc2)n1/N=C/c1ccco1 | > 100 µM (inactive) |
| CCOC(=O)c1nc2cc(F)c(N3CCOCC3)cc2[nH]c1=O | > 100 µM (inactive) |
| O=C1C=C/C(=N/c2cccc3c(/N=C4/C=CC(=O)O4)cccc23)O1 | 22.3 µM (inactive) |
| C=CCC1(CC)C(=O)NC(=O)NC1=O | > 100 µM (inactive) |

---

System: K562
Test: NCI tumour cell line growth inhibition, 48 h
Activity calls are given as the source filed them. No stated cut-off is given here; in the data, active = GI50 up to about 1.1 µM and inactive = higher. Numbered stars: 1 amine (or outer) side, 2 acyl side, 3 side chain; on linkers, the order of the positions; unused ones are H or OH. Square brackets hold non-standard residues; d marks the D form. Peptide text beside a SMILES is read from it. * marks the point of attachment. X30 = CC(=O)N(C)SCC(N[*:1])C(=O)[*:2]; Cbz = O=C(OCc1ccccc1)*; Bn = c1ccc(C*)cc1

| compound | GI50 |
| --- | --- |
| C/C(=N\NC(=O)c1ccncc1)c1cccc(F)c1 | > 10 µM (inactive) |
| COC(=O)C1=C(CCCCO[Si](C)(C)C(C)(C)C)NC(=O)N2[C@@H](CCOCc3ccccc3)CC[C@H]12 | 25.1 µM (inactive) |
| CCCC(S(=O)(=O)c1ccccc1)S(=O)(=O)c1ccccc1 | > 100 µM (inactive) |
| CN(C)c1ccc2c(NCCCCCCNc3ccnc4cc(N(C)C)ccc34)ccnc2c1 | 2.74 µM (inactive) |
| COc1ccc(CCn2nccc2C)cc1 | > 100 µM (inactive) |
| O=[N+]([O-])c1ccc(C2CC(c3ccccc3Cl)=Nc3ccccc3[S+]2[O-])cc1 (centres undefined) | 1.37 µM (inactive) |
| CCOC(=O)C(=CNc1ccc(N(C2=NCC(C)S2)c2ccc(F)c(Cl)c2)cc1)C(=O)OCC (centres undefined) | 44.1 µM (inactive) |
| O=C(OCCO)C1CC2CC1C1(C2)OCCO1 (centres undefined) | > 100 µM (inactive) |
| C=C1C(=O)OC2C1C(=O)C/C(C)=C/CCC1(C)OC21 (centres undefined) | 5.6 µM (inactive) |
| Cc1cc2c(cc1Cl)Sc1nnc(Nc3ccccc3)n1S2(=O)=O | 8.69 µM (inactive) |
| COc1cc(/C=C2\C(=O)N(c3ccccc3)C(c3ccccc3)S2(=O)=O)cc(OC)c1OC (centres undefined) | 27 µM (inactive) |
| O=C(O)c1cccc(Nc2c(C(=O)O)cccc2[N+](=O)[O-])c1 | > 100 µM (inactive) |
| NC(=O)CC(Nc1ncc2c(n1)-c1ccccc1OC2)C(=O)O (centres undefined) | > 100 µM (inactive) |
| Cc1cccc(N2C(=O)C(=O)C(c3nc4ccccc4s3)/C(=N/NC(=S)NN)C2=O)c1C (centres undefined) | > 100 µM (inactive) |
| CC(=O)N(C)SCC(NC(=O)C(Cc1ccccc1)NC(=O)OCc1ccccc1)C(=O)NC(Cc1ccccc1)C(=O)NC(Cc1c[nH]c2ccccc12)C(=O)NC(CCCCNC(=O)OCc1ccccc1)C(=O)NC(C(=O)NC(CSN(C)C(C)=O)C(=O)NC(C(N)=O)C(C)OCc1ccccc1)C(C)OCc1ccccc1 (centres undefined) (Cbz-F[X30]FWK(Cbz)T(Bn)[X30]T(Bn)-NH2; configuration not given here) | > 100 µM (inactive) |
| COc1cc(OC(=O)c2ccccc2)cc2c1C(=O)C=CC2=O | 1.88 µM (inactive) |
| O=C(COC(=O)c1cccc2c(=O)c3ccccc3[nH]c12)Nc1ccc(Cl)cc1 | > 100 µM (inactive) |
| NC(Cc1n[nH]c2ccccc12)C(=O)O (centres undefined) | > 100 µM (inactive) |
| O=C1CN(c2cccc(C(F)(F)F)c2)C(=O)CN1NCNN1CC(=O)N(c2cccc(C(F)(F)F)c2)CC1=O | > 100 µM (inactive) |

---

Recorded GI50 values for a group of compounds are listed next.
Tested on: SF-268
Test: NCI tumour cell line growth inhibition, 48 h
The source made the active and inactive calls. Rule as the data show it: active = GI50 up to about 1.1 µM and inactive = higher. Numbered stars: 1 amine (or outer) side, 2 acyl side, 3 side chain; on linkers, the order of the positions; unused ones are H or OH. Where a SMILES comes first, the peptide text is derived from it. Square brackets hold non-standard residues; d marks the D form. Peptide text beside a SMILES is read from it. [ ]: non-standard residue; d: D form. * marks the point of attachment. X30 = CC(=O)N(C)SCC(N[*:1])C(=O)[*:2]; Hiv = CC(C)[C@H](O)C(=O)O; Cbz = O=C(OCc1ccccc1)*; Bn = c1ccc(C*)cc1
reportedProperty: GI50

| compound | studyTarget | recordedValue |
| --- | --- | --- |
| CC(C)(Oc1ccc(-c2cccc3ccccc23)cc1)C(=O)O | SF-268 | > 100 µM (inactive) |
| C[N+](C)(C)c1ncnc2c1ncn2C1CCCO1 (stereo not drawn) | SF-268 | > 100 µM (inactive) |
| O=C1OC(c2ccc(O)c(Cl)c2)(c2ccc(O)c(Cl)c2)c2ccc(Br)c3cccc1c23.O=C1OC(c2ccc(O)c(Cl)c2)(c2ccc(O)c(Cl)c2)c2cccc3c(Br)ccc1c23 | SF-268 | 14.2 µM (inactive) |
| CN(C)CCn1c(=O)oc2cc(C(=O)CN3CCOCC3)ccc21 | SF-268 | > 100 µM (inactive) |
| c1ccc2c(c1)Sc1nccc3ccnc-2c13 | SF-268 | 18.7 µM (inactive) |
| CCSC12CC3c4cccc5c4C(CN5C(=O)c4ccccc4)CC3(O1)N(C)C2=O (stereo not drawn) | SF-268 | 42.7 µM (inactive) |
| CN(C)c1ncc(-c2c[nH]c3ccccc23)nc1-c1c[nH]c2ccccc12 | SF-268 | 10.6 µM (inactive) |
| O=C1c2ccccc2CC12CCC1(CC2)OCCO1 | SF-268 | > 100 µM (inactive) |
| CC(C)[C@@H]1OC(=O)[C@@H](C)NC(=O)[C@@H]2CCCN2C1=O (cyclo([Hiv]-Pro-[dA])) | SF-268 | > 100 µM (inactive) |
| CC1(Cl)CC2C(CC1Sc1nnnn1-c1ccccc1)C2(C)C (stereo not drawn) | SF-268 | > 100 µM (inactive) |
| NC(=O)c1cc2ccccc2c(/N=N/c2ccccc2)c1O | SF-268 | 52.7 µM (inactive) |
| CC(=O)N(C)SCC(NC(=O)C(Cc1ccccc1)NC(=O)OCc1ccccc1)C(=O)NC(Cc1ccccc1)C(=O)NC(Cc1c[nH]c2ccccc12)C(=O)NC(CCCCNC(=O)OCc1ccccc1)C(=O)NC(C(=O)NC(CSN(C)C(C)=O)C(=O)NC(C(N)=O)C(C)OCc1ccccc1)C(C)OCc1ccccc1 (stereo not drawn) (Cbz-F[X30]FWK(Cbz)T(Bn)[X30]T(Bn)-NH2; configuration not given here) | SF-268 | > 100 µM (inactive) |
| O=C(O)c1ccc([I+]c2ccccc2)cc1 | SF-268 | > 100 µM (inactive) |
| O=C1CN(c2cccc(C(F)(F)F)c2)C(=O)CN1NCNN1CC(=O)N(c2cccc(C(F)(F)F)c2)CC1=O | SF-268 | > 100 µM (inactive) |
| O=c1cc(CN2CCCCC2)nc2ccc3c(O)cc(CN4CCCCC4)nc3n12 | SF-268 | > 100 µM (inactive) |
| N#CCC1(c2ccc(Cl)cc2)NC(=O)c2ccccc21 (stereo not drawn) | SF-268 | > 100 µM (inactive) |
| C=CCC1(CC)C(=O)NC(=O)NC1=O | SF-268 | > 100 µM (inactive) |
| O=c1[nH]cc(F)c(=O)n1C1OC(CO)C(O)C1O (stereo not drawn) | SF-268 | > 100 µM (inactive) |
